Where these numbers come from: ChEMBL document CHEMBL3045184

Biological target: Avian myoblastosis virus polyprotein II (Avian myeloblastosis virus) (UniProt Q86831)
Sequence (whole entry): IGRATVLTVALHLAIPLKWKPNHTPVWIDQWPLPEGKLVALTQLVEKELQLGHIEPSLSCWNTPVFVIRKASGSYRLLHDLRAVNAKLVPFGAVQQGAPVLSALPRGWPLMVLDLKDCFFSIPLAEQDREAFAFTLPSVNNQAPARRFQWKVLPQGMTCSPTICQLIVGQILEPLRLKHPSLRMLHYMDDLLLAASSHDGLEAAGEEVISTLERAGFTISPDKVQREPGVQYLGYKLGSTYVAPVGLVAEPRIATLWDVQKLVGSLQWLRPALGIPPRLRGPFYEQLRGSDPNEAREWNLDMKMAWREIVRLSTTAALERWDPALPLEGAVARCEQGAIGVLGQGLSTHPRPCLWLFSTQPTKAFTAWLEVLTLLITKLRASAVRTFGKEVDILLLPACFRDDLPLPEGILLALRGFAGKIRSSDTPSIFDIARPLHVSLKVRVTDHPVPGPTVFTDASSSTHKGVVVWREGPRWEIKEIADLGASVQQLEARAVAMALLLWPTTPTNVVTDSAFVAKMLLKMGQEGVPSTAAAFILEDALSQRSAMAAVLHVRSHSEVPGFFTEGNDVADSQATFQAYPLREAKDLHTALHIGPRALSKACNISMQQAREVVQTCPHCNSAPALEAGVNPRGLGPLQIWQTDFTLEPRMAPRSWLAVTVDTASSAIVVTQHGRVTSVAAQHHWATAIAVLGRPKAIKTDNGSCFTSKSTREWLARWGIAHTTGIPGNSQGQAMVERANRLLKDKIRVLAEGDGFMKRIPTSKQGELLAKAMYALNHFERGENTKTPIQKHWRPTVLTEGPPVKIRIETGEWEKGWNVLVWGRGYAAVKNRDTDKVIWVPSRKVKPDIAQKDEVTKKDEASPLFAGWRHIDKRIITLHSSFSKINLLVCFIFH
Assay: Inhibition of Avian myeloblastosis virus reverse transcriptase
Set-up: concentration or dose not given beside the values
Details: concentration not given here
inhibition values for the compounds below.
// unit must come after the numeric part

Sample answers from the record:
* O=c1c(O)c(-c2c(O)cccc2O)oc2cc(O)cc(O)c12 | 21.3%
* CC(=O)Oc1ccc(-c2cc(=O)c3c(OC(C)=O)cc(OC(C)=O)cc3o2)cc1 | 24.7%
* O=c1cc(-c2ccc(O)cc2)oc2c(O)c(O)cc(O)c12 | 22%

Challenge: Given the compound COc1ccc(-c2cc(=O)c3c(O)cc(OC(C)C)c(OC)c3o2)cc1 , what is its reported inhibition?
Response given: 12%

Challenge: And what about the compound O=c1c(O)c(-c2ccc(O)c(O)c2)oc2cc(O)c(O)c(O)c12 ?
Response given: 98.4%

Challenge: And what about the compound COc1c(O)cc(O)c2c(=O)cc(-c3ccccc3)oc12 ?
Response given: 36.8%

Challenge: And what about the compound COc1cccc(O)c1-c1cc(=O)c2c(O)c(OC)c(OC)c(OC)c2o1 ?
Response given: 18%

Challenge: And what about the compound CC(C)Oc1ccc(-c2cc(=O)c3c(O)cc(O)cc3o2)cc1OC(C)C ?
Response given: 12.2%

* * *

Molecular target: Avian myoblastosis virus polyprotein II (Avian myeloblastosis virus) (UniProt Q86831)
Assay: Inhibition of Avian myeloblastosis virus reverse transcriptase
Design: concentration or dose not given beside the values
Conditions: concentration not given here
RESULT TYPE: inhibition (%)
Provide only the numeric value, understood in %.

Sample answers from the record:
- CC(C)Oc1ccc(-c2cc(=O)c3c(O)cc(O)c(O)c3o2)cc1OC(C)C: 17.6
- COc1cc(O)c2c(=O)cc(-c3ccccc3OC(C)=O)oc2c1OC: 17
- COc1cc(O)c2c(=O)c(O)c(-c3ccc(O)c(O)c3)oc2c1: 50.8
- COc1cc2oc(-c3ccc(O)cc3)cc(=O)c2c(O)c1OC: 50.9
- O=c1c(O)c(-c2ccccc2O)oc2cc(O)cc(O)c12: 28
- O=c1c(O)c(-c2ccc(O)cc2O)oc2cc(O)cc(O)c12: 40.5

Challenge: Given the compound CC(C)Oc1ccc(-c2cc(=O)c3c(O)cc(OC(C)C)cc3o2)cc1 , what is its reported inhibition?
Response given: 23.6

Challenge: And what about the compound COc1ccc(-c2cc(=O)c3c(O)cc(OC)cc3o2)cc1 ?
Response given: 54.8
